Source: ChEMBL document CHEMBL4376827

test system: THP-1; test: Cytotoxicity against human THP1 cells assessed as reduction in cell viability at 5 uM incubated for 18 hrs by MTT assay relative to control; details: thp-1, 18 h
test_readout: Activity (%)
Number in %, nothing else.

CNC(=O)c1ccc(S(=O)(=O)Nc2cc(OC)c(Cl)cc2OC)cc1	77

Q. Reported Activity for COc1cc(NS(=O)(=O)c2ccc(OC)c(N=[N+]=[N-])c2)c(OC)cc1Cl : what is it?
A. 87.2

Q. # query: Activity of entry CCCCCN(c1cc(OC)c(Cl)cc1OC)S(=O)(=O)c1ccc(OCC)cc1
A. 72.9

Q. Which Activity is reported for this molecule? CCOc1ccc(S(=O)(=O)N(CCCNC(=O)CCCCCNC(=O)c2ccc3c(c2)C(=O)OC32c3ccc(O)cc3Oc3cc(O)ccc32)c2cc(OC)c(Cl)cc2OC)cc1
A. 98.1

* * *

tested on: THP-1; experiment: Cytotoxicity against human THP1 cells assessed as reduction in cell viability at 5 uM incubated for 18 hrs by MTT assay relative to control; conditions: thp-1, 18 h
Documented Activity across a set of compounds
Give the value, in units of %, as a plain number.

Worked set:
CCOc1ccc(S(=O)(=O)N(CCCNC(=O)c2ccc(-c3c4ccc(=[N+](C)C)cc-4oc4cc(N(C)C)ccc34)c(C(=O)O)c2)c2cc(OC)c(Cl)cc2OC)cc1	76.9
COc1cc(NS(=O)(=O)c2ccc(CN)cc2)c(OC)cc1Cl	97
CCOc1ccc(S(=O)(=O)N(CCCN)c2cc(OC)c(N=[N+]=[N-])cc2OC)cc1.Cl	68.9

Q. Could you tell me which Activity is on file for CCOc1ccc(S(=O)(=O)N(c2cc(OC)c(Cl)cc2OC)C(C)C)cc1 ?
A. 103.2

* * *

organism: Homo sapiens; test: Activation of LPS-induced NF-kappaB activity in human THP1-Blue-NF-kappaB cells assessed as increase in SEAP reporter activity at 5 uM incubated for 20 hrs by quanti-blue SEAP assay relative to control
Catalogue of compounds with associated Activity
# include the unit after the value

COc1cc(NS(=O)(=O)c2ccc(O)cc2)c(OC)cc1Cl	98%

Q. Given CCOc1ccc(S(=O)(=O)Nc2cc(OC)c(Cl)c(OC)c2)cc1 , state its recorded Activity.
A. 179%

Q. Look at this compound and give its reported Activity. CCOc1ccc(S(=O)(=O)N(CCc2ccccc2)c2cc(OC)c(Cl)cc2OC)cc1
A. 131%

Q. Which Activity is listed for CCOc1ccc(S(=O)(=O)N(CCCO)c2cc(OC)c(Cl)cc2OC)cc1 ?
A. 219%

* * *

test system: THP-1; assay: Cytotoxicity against human THP1 cells assessed as reduction in cell viability at 5 uM incubated for 18 hrs by MTT assay relative to control; conditions: thp-1, 18 h
test_readout: Activity (%)
Number only, in %; omit the unit.

Check out these entries, answers already filled in.
CCOc1ccc(S(=O)(=O)Nc2cc(OC)c(Br)cc2OC)cc1	68.8
C#CCOCCOCCOCCN(c1cc(OC)c(Cl)cc1OC)S(=O)(=O)c1ccc(OCC)cc1	73.7

Q. What value of Activity has been recorded for this entry: CCOc1ccc(S(=O)(=O)N(CCCNC(=O)CCCC[C@H]2SC[C@H]3NC(=O)N[C@H]32)c2cc(OC)c(Cl)cc2OC)cc1
A. 69.6

Q. Look up Activity: COc1cc(NS(=O)(=O)c2ccc(C(N)=O)cc2)c(OC)cc1Cl
A. 91

Q. Fill in the blank: the reported Activity of COc1cc(NS(=O)(=O)c2ccc(O)cc2)c(OC)cc1Cl is ____.
A. 85.2

Q. Recorded Activity for CCOc1ccc(S(=O)(=O)Nc2cc(OC)c(Cl)c(OC)c2)cc1 , please?
A. 71.4

Q. # get_value(readout='Activity', item= COc1cc(NS(=O)(=O)c2ccccc2OC)c(OC)cc1Cl )
A. 92.1

Q. Endpoint output: Activity of CCOc1ccc(S(=O)(=O)N(Cc2ccccc2)c2cc(OC)c(Cl)cc2OC)cc1 . Value?
A. 71.7

Q. Value lookup for Activity; key = CCOC(=O)CCCN(c1cc(OC)c(Cl)cc1OC)S(=O)(=O)c1ccc(OCC)cc1
A. 80.1

Q. For the molecule C#CCCCN(c1cc(OC)c(Cl)cc1OC)S(=O)(=O)c1ccc(OCC)cc1 , what Activity is on record?
A. 70.7

Q. Query: Activity; subject: CCOc1ccc(S(=O)(=O)N(C)c2cc(OC)c(Cl)cc2OC)cc1
A. 74.5

Q. Which Activity value is on record for CCOc1ccc(S(=O)(=O)N(CCc2ccccc2)c2cc(OC)c(Cl)cc2OC)cc1 ?
A. 44

Q. What value of Activity has been recorded for this entry: CCOC(=O)c1ccc(S(=O)(=O)Nc2cc(OC)c(Cl)cc2OC)cc1
A. 70.8
